- measurement.protocol: cytotoxicity in HPDE-C7 cells, cell-based, fluorescence, HTS (AID 430);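 also: cells exposed to compound for 48 hours before viability readout; 0% = vehicle and 100% = reference cytotoxic drug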
- test.context: HPDE-C7 pancreatic duct cells viability, at 10 µM, active compounds read high
About 1,100 (1.7%) of roughly 63,000 compounds were called active. What follows is part of a selection rich in actives, with near analogues and random picks from the rest. Entries with a potency or affinity are not part of this list.
assay.metric: cytotoxicity (%)

• Cn1nnc(NC(=O)c2ccccc2F)n1 = -4.8
• CCOc1ccccc1C1C2C(=O)N(c3ccccc3)C(=O)C2ON1c1ccccc1 (stereo unspecified) = -2.8
• O=C(O)C1CC(=O)N(c2ccc(F)c(F)c2)C1 (stereo unspecified) = -4.7
• CCOC(=O)CC(=O)CSc1[nH]c(=O)cc(C)c1C#N = -1.4
• CCn1c(COc2ccccc2C)nnc1SCC(=O)N1CCC(C)CC1 = -9.2
• Cc1cccc(OCc2nnc(SCC(=O)Nc3cc(C)on3)n2C)c1 = -0.4
• CSCC[C@@H](Nc1nc(-c2ccccc2)nc2c1oc1ccccc12)C(=O)O = 7.2
• COc1ccc(OC)c(C2CC(=O)NC(SC)=C2C#N)c1 (stereo unspecified) = -2.9
• CCCc1[nH]nc2c1C1(C(=O)N(C(C)C)c3ccccc31)C(C#N)=C(N)O2 (stereo unspecified) = -41.8
• COc1cc(C2=NOC(C(=O)Nc3ccc(C)cc3)C2)cc(OC)c1OC (stereo unspecified) = -9.2
• N#CCCCN1C(=O)C(O)(CC(=O)c2ccc3c(c2)OCCO3)c2ccccc21 (stereo unspecified) = -27.8

====

- measurement.protocol: cytotoxicity in HPDE-C7 cells, cell-based, fluorescence, HTS (AID 430)
- test.context: HPDE-C7 pancreatic duct cells viability, at 10 µM, active compounds read high
The whole screen tested about 63,000 compounds, of which about 1,100 (1.7%) were called active. Many of the other results were omitted from the sample, so actives are more common in it than they were. Measured potencies and affinities stand elsewhere.
Measured cytotoxicity accompanies every entry in the list below.
assay.metric: cytotoxicity (%)

• CCCNC(=O)c1ccccc1NS(=O)(=O)c1ccc2c(c1)OCCO2 = 14.8
• COC(=O)c1ccc(C)c(NC(=O)CN(c2ccc3c(c2)OCO3)S(C)(=O)=O)c1 = -6.6
• COC(=O)c1ccc(C)c(NS(=O)(=O)c2ccc(OC)cc2)c1 = 68
• CCCOC(=O)CSC1=C(C#N)C(c2ccccc2OCC)C(C#N)C(=O)N1 (stereo unspecified) = 5.1
• COc1cc(S(=O)(=O)N2CCN3CCCC3C2)ccc1-n1cnnn1 (stereo unspecified) = 5.7
• O=C(O)c1ccc(NS(=O)(=O)c2ccc3c(c2)OCCO3)cc1 = 0.3
• CCOc1ccccc1-c1nn2c(Cc3ccccc3)nnc2s1 = -4.2
• COC(=O)c1ccc(NS(=O)(=O)c2ccc(OC)cc2)cc1 = 2
• COC(=O)c1ccc(Cl)c(NS(=O)(=O)c2ccc3c(c2)OCCO3)c1 = 55.7
• Cc1cc(C)cc(OCC(=O)Nc2ccc(N3CCN(S(C)(=O)=O)CC3)cc2)c1 = -17.3
• COC(=O)c1ccc(C)c(NS(=O)(=O)c2ccc(NC(C)=O)cc2)c1 = 20.6

====

- measurement.protocol: cytotoxicity in HPDE-C7 cells, cell-based, fluorescence, HTS (AID 430)
- test.context: HPDE-C7 pancreatic duct cells viability, at 10 µM
Screen size: about 63,000 compounds; about 1,100 (1.7%) were called active. Cut-off read from the data, not from the text of the source: active = cytotoxicity above about 50%; inactive = the rest. This excerpt belongs to a sample that is enriched for actives. Results with a measured potency or affinity are listed apart.
Possible outcomes: active, inactive

* O=c1ccnc(S/C=C/c2ccccc2)[nH]1 | inactive
* COc1ccc(Cc2nnc(SCC(=O)NCC3CCCO3)o2)cc1 (stereo unspecified) | inactive
* Cc1cc(NC(=O)CSc2nnc3c(C)cc4c(C)ccc(C)c4n23)no1 | active
* Cc1cc(NC(=O)CSc2nnc3c(C)cc4cc(C)c(C)cc4n23)no1 | inactive
* CCOc1ccc(-c2[nH]ncc2Oc2ccccc2OCC)c(O)c1 | active
* Cc1cc(C)c2c(c1)cc(C)c1nnc(SCC(=O)Nc3cc(C)on3)n12 | inactive

====

- measurement.protocol: cytotoxicity in HPDE-C7 cells, cell-based, fluorescence, HTS (AID 430)
- test.context: HPDE-C7 pancreatic duct cells viability, at 10 µM
About 1,100 (1.7%) of roughly 63,000 compounds were called active. Cut-off read from the data, not from the text of the source: active = cytotoxicity above about 50%; inactive = the rest. The list comes from a sample in which actives are over-represented; it also holds close analogues and randomly drawn compounds. Measured potencies and affinities stand elsewhere.
Possible outcomes: active, inactive

- O=C(CCNS(=O)(=O)c1cccs1)NCc1ccco1: inactive
- CCOC(=O)c1ccccc1NC(=O)c1ccccc1SC: inactive
- COCC(=O)Nc1cc(OC)c(Cl)cc1OC: inactive
- CCCCOC(=O)C(C)Nc1n[nH]c(=O)[nH]c1=O (stereo unspecified): inactive
- CCOC(=O)c1c(C)oc2c1c(/C=N/c1ccccn1)c(O)c1ccccc12: inactive
- COc1cc(NC(=O)c2c(F)c(F)c(F)c(F)c2F)c(OC)cc1Cl: active
- O=C(Nc1ccccc1Cl)c1c(F)c(F)c(F)c(F)c1F: inactive
- CCOC(=O)c1ccccc1NC(=O)c1cccs1: inactive
- O=C(Nc1nc(-c2cccnc2)cs1)c1ccc(S(=O)(=O)N2CCOCC2)cc1: inactive
- CCOC(=O)c1c(C)oc2c1c(C(c1cccnc1)N1CCN(C)CC1)c(O)c1ccccc12 (stereo unspecified): active
- O=C(CN1CCN(Cc2ccccc2)CC1)Nc1ccc(Cl)cn1: inactive

====

- measurement.protocol: cytotoxicity in HPDE-C7 cells, cell-based, fluorescence, HTS (AID 430);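 also: cells exposed to compound for 48 hours before viability readout; 0% = vehicle and 100% = reference cytotoxic drug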
- test.context: HPDE-C7 pancreatic duct cells viability, at 10 µM, active compounds read high
Among all 63,000 compounds or so, about 1,100 (1.7%) were called active. This is one part of a sample in which actives are shown more often than they occur. Entries with a potency or affinity are not part of this list.
assay.metric: cytotoxicity (%)

• CCCc1nc2ccccc2c(C(=O)OC2CCOC2=O)c1CC (stereo unspecified) = -7.5
• CC(=O)N(Cc1cc2ccc(C)c(C)c2n2nnnc12)C1CCCC1 = -3.5
• c1ccc2[nH]c(CSc3nnc(-c4ccncc4)o3)nc2c1 = 3.2
• CC(=O)Nc1ccc(S(=O)(=O)NCC(C)NS(=O)(=O)c2ccc(NC(C)=O)cc2)cc1 (stereo unspecified) = -20
• c1coc(-c2nnc(SCc3nc4ccccc4[nH]3)o2)c1 = 65.9
• CCC(C)N(C(=O)Cn1nnc2ccccc21)C(C(=O)NCc1ccco1)c1cccc(OC)c1 (stereo unspecified) = -10.2

====

- measurement.protocol: cytotoxicity in HPDE-C7 cells, cell-based, fluorescence, HTS (AID 430);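 also: cells exposed to compound for 48 hours before viability readout; 0% = vehicle and 100% = reference cytotoxic drug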
- test.context: HPDE-C7 pancreatic duct cells viability, at 10 µM, active compounds read high
In all, about 63,000 compounds went through this assay and about 1,100 (1.7%) were called active. The entries come from a sample that favours actives as a whole. Measured potencies and affinities stand elsewhere.
assay.metric: cytotoxicity (%)

• O=C(NC1CCCCC1)c1sc(=S)n2c1[nH]c(=O)c1ccccc12 = 82.6
• CCCC(=O)Nc1cc(OC)c(OC)cc1C(=O)O = 6.8
• Cc1cc2ccccc2n1CCNC(=O)c1ccc(S(=O)(=O)N2CCOCC2)cc1 = -3.1
• CCOC(=O)CSC1=NC(=O)CS1 = -7
• O=C(NC1CCCC1)c1sc(=S)n2c1[nH]c(=O)c1ccccc12 = 79.4
• O=C(c1cc(-c2cccs2)on1)N1CCN(c2ccccc2)CC1 = 51.3
• NC(=O)CSc1nnc2sc3ccccc3n12 = 3.6
• COc1cc2oc(=O)c(Br)c(C)c2c(OC)c1OC = -8.6
• O=C(O)C1CCC(CNCc2cccnc2)CC1 (configuration not stated) = -8.3
• O=C(COc1cnc2ccccc2n1)NCCC1=CCCCC1 = -1.1
• O=C(NC1CCCCCC1)c1c(O)c2ccccc2[nH]c1=O = -4.9
• O=C(c1cc(-c2cccs2)on1)N1CCOCC1 = -1.4

====

Measured cytotoxicity accompanies every entry in the list below.
- measurement.protocol: cytotoxicity in HPDE-C7 cells, cell-based, fluorescence, HTS (AID 430);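 also: cells exposed to compound for 48 hours before viability readout; 0% = vehicle and 100% = reference cytotoxic drug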
- test.context: HPDE-C7 pancreatic duct cells viability, at 10 µM, active compounds read high
Screen size: about 63,000 compounds; about 1,100 (1.7%) were called active. Shown is part of a subset that was picked to be rich in actives. Measured potencies and affinities stand elsewhere.
assay.metric: cytotoxicity (%)

* CN(C)CCNc1nc(-c2ccco2)c2c(c1C#N)CC(C)(C)OC2 | 2.7
* Cc1c2c(nc3nc4ccccc4n13)CC(C)(C)CC2=O | 0.8
* CCn1c(CNC(=O)C(C)(C)C)nc2ccccc21 | -1.1
* CC(C)NS(=O)(=O)c1ccc(CCC(=O)O)cc1 | -5.7
* COc1cccc(C2=CC(c3ccccc3)n3nnnc3N2)c1 (stereo not drawn) | 53.7
* Cc1nc(NCc2ccco2)c(C#N)c2c1COC(C)(C)C2 | -17.6
* CC1CCCN(c2ncnc3c2cnn3-c2ccccc2)C1 (stereo not drawn) | -9.4
* O=C(Nc1c2c(nn1-c1ccc(F)cc1)CSC2)c1ccc(S(=O)(=O)N2CCOCC2)cc1 | -9.4
* COc1cccc(C2=CC(c3ccc(N(C)C)cc3)n3nnnc3N2)c1 (stereo not drawn) | -3
* CCCCOc1ccccc1NC(=O)CC1Nc2ccccc2NC1=O (stereo not drawn) | -9.1
* COc1ccc(OC)c(C2C=C(c3ccc(C)c(C)c3)Nc3nnnn32)c1 (stereo not drawn) | 10.4
* O=C(NCc1ccco1)C1CN(S(=O)(=O)c2ccccc2)CCN1S(=O)(=O)c1ccccc1 (stereo not drawn) | -23.1
* COc1ccccc1C1C=C(c2ccccc2)Nc2nnnn21 (stereo not drawn) | 29.6
* COc1cccc(C2=CC(c3cc(OC)ccc3OC)n3nnnc3N2)c1 (stereo not drawn) | 70.3
* COc1ccc(C2C=C(c3ccccc3)Nc3nnnn32)cc1 (stereo not drawn) | -3.3
* CCN(CC)CCNc1nc(-c2ccco2)c2c(c1C#N)CC(C)(C)OC2 | -14.1
* COc1ccccc1C1C=C(c2ccc(C)cc2)Nc2nnnn21 (stereo not drawn) | -0.5
* CCOC(=O)C1(C)NC(c2ccc(N(C)C)cc2)C2C(=O)N(CC)C(=O)C21 (stereo not drawn) | -12.4
* COc1ccc(C2=CC(c3ccc(F)cc3)n3nnnc3N2)cc1 (stereo not drawn) | -4
* Nc1nc(F)nc2c1ncn2[C@@H]1O[C@H](CO)[C@@H](O)[C@@H]1O | 13.2
* Cc1cc2cc(CCNC(=O)CC(C)C)c(=O)[nH]c2cc1C | 3.7
* COc1ccc(NC(=O)CN(C)S(=O)(=O)c2cccc3cccnc23)cc1 | -4.1
* CCCc1nc(NCc2ccco2)c(C#N)c2c1COC(C)(C)C2 | -13.3

Origin of the recorded values: PubChem BioAssay AID430
